B1: Pistol ribozyme (parent)
chain: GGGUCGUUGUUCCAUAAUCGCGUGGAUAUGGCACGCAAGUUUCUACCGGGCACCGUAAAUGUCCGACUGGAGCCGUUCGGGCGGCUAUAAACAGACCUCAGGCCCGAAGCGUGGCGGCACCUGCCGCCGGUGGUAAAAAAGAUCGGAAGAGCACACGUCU

- Variants of: B1
- assay.summary: aptazyme ON/OFF ratio, guanine; higher = stronger switching; co-transcriptional cleavage with and without guanine
Quick list: aptazyme ON/OFF ratio per entry.
# output: bare number, no unit

# mutant.id, aptazyme ON/OFF ratio
records = [
    ("U7G U8G G9A C12A C13G", 1.11),
]

Req: Find the recorded aptazyme ON/OFF ratio belonging to U7G U8C G9C U10C U11A C12G and report it.
Resp: 1.11

Req: Further, for U7A U10G U11C C13U ?
Resp: 1.05

Req: For U7C U8A G9C C12U C13A then?
Resp: 1.12

Req: Also, U7A G9C U11G C12G C13G please.
Resp: 1.14
